Cited source for all entries: patent US5250539A

Assign inhibition at 1 µM to each entry below.
Tgt: 5α-Reductase (Homo sapiens, UniProt P18405)
Construct: host or cells: Hs68 human genital skin fibroblasts
Sequence (P18405 whole entry): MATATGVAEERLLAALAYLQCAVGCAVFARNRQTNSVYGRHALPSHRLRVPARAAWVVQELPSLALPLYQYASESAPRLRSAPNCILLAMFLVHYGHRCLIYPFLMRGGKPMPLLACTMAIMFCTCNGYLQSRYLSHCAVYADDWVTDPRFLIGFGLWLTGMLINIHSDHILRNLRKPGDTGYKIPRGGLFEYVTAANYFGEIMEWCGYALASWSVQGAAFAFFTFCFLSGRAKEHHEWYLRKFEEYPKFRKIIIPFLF
Protocol: Inhibition of 5α-reductase in Hs68 human genital skin fibroblasts (conversion of labelled testosterone, TLC)
Type: cell-based
Measurement parameters: 1.0 μM test compound; Hs68 cells; 12 μM testosterone; 4 h; read-out: % Inhibition
Numbers only, in %.

Sample records with inhibition at 1 µM:
{"columns": ["Compound", "Observation type", "Units of measure", "Numeric readout"],
 "data": [
  ["Cc1cccc2c1C1=C(CC2)NC(=O)CC1 [Example 29]", "inhibition at 1 µM", "%", 41],
  ["CN1C(=O)CCC2=C1CCc1ccccc12 [Example 7]", "inhibition at 1 µM", "%", 48],
  ["CN1C(=O)CCC2=C1CCc1c(F)cccc12 [Example 19]", "inhibition at 1 µM", "%", 61],
  ["COc1cccc2c1C1=C(CC2)NC(=O)CC1 [Example 27]", "inhibition at 1 µM", "%", 0],
  ["COc1ccc2c(c1)CCC1=C2CCC(=O)N1 [Example 11]", "inhibition at 1 µM", "%", 20]
]}

Provide inhibition at 1 µM values for the following items, in order.
1. COc1ccc2c(c1)C1=C(CC2)NC(=O)CC1 [Example 26]
2. CN1C(=O)CCC2=C1CCc1ccc(F)cc12 [Example 21]
3. CCN1C(=O)CCC2=C1CCc1cc(F)ccc12 [Example 24]
4. O=C1CCC2=C(CCc3cc(F)ccc32)N1Cc1ccccc1 [Example 23]

[12, 60, 31, 37]
